The reader will find reported pKd values listed item by item below.
protocolDescription: Binding affinity to amyloid beta (unknown origin) monomer
Parameters: species or system Homo sapiens
pKd: −log10 of the molar value.
attributeMeasured: pKd

smilestext=Cc1cc(/C=C/c2ccc(N(C)C)s2)n2c1C=C1C=CC=[N+]1[B-]2(F)F recordedresult=7.26
smilestext=Cc1cc(/C=C/c2ccc(N(C)C)cc2)n2c1C=C1C=CC=[N+]1[B-]2(F)F recordedresult=6.72
smilestext=CC1=CC(C)=[N+]2C1=C(CCCN1CCNc3ccccc31)c1c(C)cc(/C=C/c3ccc(N(C)C)s3)n1[B-]2(F)F recordedresult=8.22
smilestext=COCCOCCOCC1=C2C(C)=CC(/C=C/c3ccc(N(C)C)cc3)=[N+]2[B-](F)(F)n2c(/C=C/c3ccc(N(C)C)cc3)cc(C)c21 recordedresult=7.01
smilestext=CC1=[N+]2C(=C(/C=C/c3ccc(N(C)C)cc3)c3ccc(C)n3[B-]2(F)F)C=C1 recordedresult=6.49
smilestext=Cc1cc(/C=C/c2ccc(-c3ccc(N(C)C)cc3)s2)n2c1C=C1C=CC=[N+]1[B-]2(F)F recordedresult=7.57
smilestext=Cc1cc(/C=C/c2ccc(-c3ccc(N(C)C)cc3)o2)n2c1C=C1C=CC=[N+]1[B-]2(F)F recordedresult=7.74
smilestext=COCCOCCOCC1=C2C(C)=CC(C)=[N+]2[B-](F)(F)n2c(/C=C/c3ccc(N(C)C)cc3)cc(C)c21 recordedresult=7.31
smilestext=COc1ccc(/C=C/C2=[N+]3C(=C(/C=C/c4ccc(N(C)C)cc4)c4ccc(/C=C/c5ccc(OC)cc5)n4[B-]3(F)F)C=C2)cc1 recordedresult=6.49
smilestext=Cc1cc(/C=C/c2ccc(N(C)C)o2)n2c1C=C1C=CC=[N+]1[B-]2(F)F recordedresult=6.83
smilestext=COc1ccc(/C=C/c2ccc3n2[B-](F)(F)[N+]2=C(C)C=CC2=C3/C=C/c2ccc(N(C)C)cc2)cc1 recordedresult=6.64

###

assayedSystem: Amyloid-beta precursor protein (Homo sapiens, UniProt P05067)
Sequence (P05067 whole entry): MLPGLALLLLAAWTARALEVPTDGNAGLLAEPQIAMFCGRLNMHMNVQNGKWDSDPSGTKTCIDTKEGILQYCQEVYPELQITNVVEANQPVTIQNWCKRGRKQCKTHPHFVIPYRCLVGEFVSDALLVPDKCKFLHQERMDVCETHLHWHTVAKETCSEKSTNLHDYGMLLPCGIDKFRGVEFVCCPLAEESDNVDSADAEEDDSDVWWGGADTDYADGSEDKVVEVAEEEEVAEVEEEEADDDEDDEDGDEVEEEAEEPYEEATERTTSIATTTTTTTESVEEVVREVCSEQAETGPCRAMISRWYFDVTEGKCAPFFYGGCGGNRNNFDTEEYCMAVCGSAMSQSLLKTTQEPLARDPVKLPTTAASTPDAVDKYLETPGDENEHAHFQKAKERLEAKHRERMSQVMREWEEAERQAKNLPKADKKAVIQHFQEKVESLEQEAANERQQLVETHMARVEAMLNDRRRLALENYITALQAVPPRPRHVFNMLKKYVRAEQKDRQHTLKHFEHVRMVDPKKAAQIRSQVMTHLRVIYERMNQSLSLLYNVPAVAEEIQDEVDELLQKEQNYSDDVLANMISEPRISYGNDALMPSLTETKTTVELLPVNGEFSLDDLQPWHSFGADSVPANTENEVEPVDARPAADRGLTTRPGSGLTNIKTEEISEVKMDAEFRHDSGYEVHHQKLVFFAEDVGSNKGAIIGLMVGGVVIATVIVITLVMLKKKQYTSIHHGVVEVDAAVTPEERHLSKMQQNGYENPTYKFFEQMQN
protocolDescription: Displacement of [125I]IMPY from amyloid beta (1 to 42) (unknown origin) measured by competitive radioligand binding assay
The reader will find reported Kd values listed item by item below.
attributeMeasured: Kd (nM)

smilestext=COC(=O)/C(C#N)=C/C=C/C=C/c1ccc(N(C)C)cc1 assayedsystem="Amyloid-beta precursor protein (Homo sapiens, UniProt P05067)" attributemeasured=Kd unittext=nM recordedresult=106
smilestext=CN(CCO)c1ccc2cc(/C=C/C=C/C=C(C#N)C#N)ccc2c1 assayedsystem="Amyloid-beta precursor protein (Homo sapiens, UniProt P05067)" attributemeasured=Kd unittext=nM recordedresult=14.5

###

protocolDescription: Binding affinity to amyloid beta (unknown origin)
Design: species or system Homo sapiens
Decision: Kd beneath 0.03 µM gives Criterion met; Kd meeting or exceeding 0.03 µM gives Criterion not met.

compound=CC(C)CC1=CC(/C=C/C=C/c2ccc(N(C)C)cc2)=[O+][B-](F)(F)O1 labelvalue="Criterion not met"
compound=CN(C)c1ccc2nc(/C=C/C=C/C=C(C#N)C#N)cnc2c1 labelvalue="Criterion not met"
compound=CN(C)c1ccc2cc3c(cc2c1)OCC(C=C(C#N)C#N)=C3 labelvalue="Criterion not met"
compound=CN(C)c1ncc(/C=C/c2nc3cc(OCC[18F])ccc3[se]2)cn1 labelvalue="Criterion met"
compound=CN(C)c1ccc(/C=C/c2cnc3ccccc3n2)s1 labelvalue="Criterion met"
compound="COc1cc(N(C)C)cc(OC)c1/C=C/C=C/C=C/C(C#N)C(=O)OCc1ccco1 (centres undefined)" labelvalue="Criterion not met"
compound=CN(C)c1ccc(-c2ccc(/C=C/C3=CC(=C(C#N)C#N)c4ccccc4N3CCCS(=O)(=O)O)s2)cc1 labelvalue="Criterion not met"
compound=N#CC(C#N)=Cc1ccc(-c2ccc(-c3ccc(O)cc3)s2)s1 labelvalue="Criterion not met"
compound=CNc1ccc(-c2nc3ccc(O)cc3s2)cc1[18F] labelvalue="Criterion met"
